Molecular target: T1, biotinylated recombinant human FAP (human, UniProt Q12884 27-760, biotinylated)
T1 construct: the Biacore paragraphs only say biotinylated (recombinant) human FAP; also called biotinylated human FAP; recombinant huFAP
Assay: SPR (Biacore)
Task for the reader: assign each of the following binders its reported kon.
Provide the reading as a plain figure in M⁻¹ s⁻¹.

**Query** Suppose we examine the binder 4B9_Fab (Fab, V domains shown, Fab; also called anti-FAP 4B9 Fab) VH: EVQLLESGGGLVQPGGSLRLSCAASGFTFSSYAMSWVRQAPGKGLEWVSAIIGSGASTYYADSVKGRFTISRDNSKNTLYLQMNSLRAEDTAVYYCAKGWFGGFNYWGQGTLVTVSS VL: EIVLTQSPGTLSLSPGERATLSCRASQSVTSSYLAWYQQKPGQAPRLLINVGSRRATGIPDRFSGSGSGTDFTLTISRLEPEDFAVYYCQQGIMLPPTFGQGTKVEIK ; what kon value has been reported?
**Result** 747000

**Query** Please do the same for P1AE1689_Fab, humanized anti-FAP Fab VH1G1a/VL1G1a (Fab, V domains shown, also called FAP antibody 1G1a; H212) VH: QVQLVQSGAEVKKPGASVKVSCKASGYTLTDYNMDWVRQAPGQGLEWIGDIYPNTGGTIYNQKFKGRVTMTIDTSTSTVYMELSSLRSEDTAVYYCTRFRGIHYAMDYWGQGTTVTVSS VL: EIVLTQSPATLSLSPGERATLSCRASESVDNYGLSFINWFQQKPGQAPRLLIYGTSNRGSGIPARFSGSGSGTDFTLTISSLEPEDFAVYFCQQSNEVPYTFGGGTKVEIK as well.
**Result** 443000

**Query** Please do the same for P1AE1690_Fab, humanized anti-FAP Fab VH1G2a/VL1G1a (Fab, V domains shown) VH: QVQLVQSGAEVKKPGASVKVSCKASGYTLTDYNMDWVRQAPGKSLEWIGDIYPNTGGTIYNQKFKGRVTMTIDKSTSTVYMELSSLRSEDTAVYYCTRFRGIHYAMDYWGQGTTVTVSS VL: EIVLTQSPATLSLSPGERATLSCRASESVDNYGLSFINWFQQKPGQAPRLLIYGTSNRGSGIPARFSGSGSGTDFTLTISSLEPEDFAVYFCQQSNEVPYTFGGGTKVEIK as well.
**Result** 551000

**Query** Please do the same for P1AE1693_Fab, humanized anti-FAP Fab VH1G2a/VL1G2a (Fab, V domains shown) VH: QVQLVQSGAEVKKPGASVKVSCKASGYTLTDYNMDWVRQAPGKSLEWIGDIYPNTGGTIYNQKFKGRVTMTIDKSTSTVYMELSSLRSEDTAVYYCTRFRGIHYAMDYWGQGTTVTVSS VL: EIVLTQSPATLSLSPGERATLSCRASESVDNYGLSFINWFQQKPGQPPRLLIYGTSNRGSGIPARFSGSGSGTDFTLTISSLEPEDFAVYFCQQSNEVPYTFGGGTKVEIK as well.
**Result** 530000
